Values were extracted from the OPERA property sets (Mansouri et al. 2018).

Entries annotated with measured logP
No unit in the answer, only the number.

Solved entries (count: 10):
- CCc1nn(C)c(C(=O)NCc2ccc(C(C)(C)C)cc2)c1Cl: 4.61
- COC(=O)CSc1cc(/N=c2\sc(=O)n3n2CCCC3)c(F)cc1Cl: 3.77
- CC[C@H]1O[C@]2(CC[C@@H]1C)C[C@@H]1C[C@@H](CC=C(C)C[C@@H](C)C=CC=C3CO[C@@H]4[C@H](O)C(C)=C[C@@H](C(=O)O1)[C@]34O)O2: 5.9
- CCSCc1ccccc1OC(=O)NC: 2.04
- CON=C(C)c1cccc(Oc2nc(OC)cc(OC)n2)c1C(=O)OC: 2.84
- FC(F)C(F)(F)OCC(Cn1cncn1)c1ccc(Cl)cc1Cl (stereo unspecified): 3.56
- CCOCOc1ccc(C(=O)Nc2cccc(Cl)c2Cl)cc1: 4.3
- CCCCOC(=O)C1(O)c2ccccc2-c2ccccc21: 3.7
- COCCN(C(=O)CCl)c1c(C)cccc1C: 2.17
- CCOc1ccccc1OS(=O)(=O)NC(O)=Nc1nc(OC)cc(OC)n1: 2.89

Tell me logP reported for CC1(C)CCC(=Cc2ccc(Cl)cc2)C1(O)Cn1cncn1 (stereo unspecified)
3.29

Tell me logP reported for CCNP(=S)(OC)O/C(C)=C/C(=O)OC(C)C (stereo unspecified)
3.82

Tell me logP reported for `CO/C=C(/C(=O)OC)c1ccccc1Oc1cc(Oc2ccccc2C#N)ncn1`
2.5

Tell me logP reported for `CC(C)OC(=O)[C@@H](C)N(C(=O)c1ccccc1)c1ccc(F)c(Cl)c1`
3.69

Tell me logP reported for `CCNc1nc(Cl)nc(NC(C)(C)C)n1`
3.21

Tell me logP reported for `FC(F)(F)C(=NOCC1OCCO1)c1ccc(Cl)cc1`
2.9

Tell me logP reported for `COc1cc(OC)nc(NC(=O)NS(=O)(=O)c2c(-c3nnn(C)n3)cnn2C)n1`
0.65

Tell me logP reported for CC(C)(C)C(O)/C(=C\c1ccc(Cl)cc1)n1cncn1 (stereo unspecified)
3.67

Tell me logP reported for `CCOC(=O)[C@@H](C)Oc1ccc(Oc2nc3ccc(Cl)cc3o2)cc1`
4.58

Tell me logP reported for CCOP(=O)(SC(C)CC)N1CCSC1=O (stereo unspecified)
1.68

Tell me logP reported for `COc1cc(OC)nc(Oc2cccc(Oc3nc(OC)cc(OC)n3)c2C(=O)[O-])n1.[Na+]`
-1.03

Tell me logP reported for CC#CCOC(C)c1ccc(OC)c(OC)c1 (stereo unspecified)
2.4

Tell me logP reported for O=CNC(N1CCN(C(NC=O)C(Cl)(Cl)Cl)CC1)C(Cl)(Cl)Cl (stereo unspecified)
2.2

Tell me logP reported for O=C(NC(=O)c1c(F)cccc1F)Nc1ccc(OC(F)(F)C(F)OC(F)(F)F)c(Cl)c1 (stereo unspecified)
5.27

Tell me logP reported for `COc1nn(CSP(=S)(OC)OC)c(=O)s1`
2.2

Tell me logP reported for `CN=C(O)/C(=N/OC)c1ccccc1Oc1ccccc1`
2.32

* * *

Entries annotated with measured log10 solubility
Settings: 20 °C
In plain terms, each number is the log10 of measured solubility in µM.

Solved entries (count: 3):
- Cc1ccc(NC(O)=NC(C)(C)c2ccccc2)cc1: 0.65
- Cc1ccc(N(SC(F)(Cl)Cl)S(=O)(=O)N(C)C)cc1: 0.41
- CCCSC(=O)N(CCC)CCC: 2.65

Tell me log10 solubility reported for `CCCCOCN(C(=O)CCl)c1c(CC)cccc1CC`
1.84

Tell me log10 solubility reported for `CC(C)Oc1cccc(NC(=O)c2ccccc2C(F)(F)F)c1`
1.39

Tell me log10 solubility reported for `C#CCOc1cc(-n2nc(C(C)(C)C)oc2=O)c(Cl)cc1Cl`
0.03

Tell me log10 solubility reported for `CC[C@H]1O[C@]2(CC[C@@H]1C)C[C@@H]1C[C@@H](CC=C(C)C[C@@H](C)C=CC=C3CO[C@@H]4[C@H](O)C(C)=C[C@@H](C(=O)O1)[C@]34O)O2`
1.12

Tell me log10 solubility reported for `O=C(O)c1ccccc1C(=O)Nc1ccccc1`
1.92

* * *

Entries annotated with measured logP

Solved entries (count: 5):
• COCc1cnc(C2=NC(C)(C(C)C)C(=O)N2)c(C(=O)O)c1 (configuration not stated) = 0.73
• CCC(C)Nc1c([N+](=O)[O-])cc(C(C)(C)C)cc1[N+](=O)[O-] (configuration not stated) = 4.93
• O=C(Nc1ccccc1)Nc1ccnc(Cl)c1 = 3.2
• CC1CCCCC1NC(=O)Nc1ccccc1 (configuration not stated) = 3.8
• CSC(=O)c1cccc2nnsc12 = 3.1

Tell me logP reported for `CN(C(=O)COc1nc2ccccc2s1)c1ccccc1`
3.23

Tell me logP reported for `CC(C)(SC(=O)N1CCCCC1)c1ccccc1`
4.02

Tell me logP reported for `CS(=O)(=O)c1cc(C(F)(F)F)ccc1C(=O)c1cnoc1C1CC1`
2.32

Tell me logP reported for CCCSP(=S)(OCC)Oc1ccc(SC)cc1 (configuration not stated)
5.48

Tell me logP reported for CCOC(=O)C1CC(=O)C(=C(O)C2CC2)C(=O)C1 (configuration not stated)
1.6

Tell me logP reported for COP(N)(=O)SC (configuration not stated)
-0.8

Tell me logP reported for `CNC(=O)CSP(=O)(OC)OC`
-0.74

Tell me logP reported for CCOC(=O)C1=NN(c2ccc(Cl)cc2Cl)C(C)(C(=O)OCC)C1 (configuration not stated)
3.83

Tell me logP reported for C=CCCCOC(=O)C(CC)N(Cc1ccco1)C(=O)n1ccnc1 (configuration not stated)
3

Tell me logP reported for `CN(C(O)=NC(C)(C)c1ccccc1)c1ccccc1`
3.01

Tell me logP reported for `CCOC(=O)CSc1nc(C(C)(C)C)nn1C(=O)N(C)C`
2.69

Tell me logP reported for `CCCN(CCC)c1c([N+](=O)[O-])cc(S(N)(=O)=O)cc1[N+](=O)[O-]`
3.73

Tell me logP reported for `CCCSC(=O)N(CCC)CCC`
3.84

Tell me logP reported for Cc1cccc(C)c1N(C(=O)CCl)C1CCOC1=O (configuration not stated)
1.39

Tell me logP reported for CC1CCCCN1CCCOC(=O)c1ccc(Cl)c(Cl)c1 (configuration not stated)
4.31

Tell me logP reported for `Cc1ccc(N(SC(F)(Cl)Cl)S(=O)(=O)N(C)C)cc1`
3.9

Tell me logP reported for `CCN(CC)C(=O)n1cnc(S(=O)(=O)c2c(C)cc(C)cc2C)n1`
3.21

* * *

measureName: logP
No unit in the answer, only the number.

Tell me logP reported for `COC(=O)[C@@H](C)N(C(=O)c1ccccc1)c1ccc(F)c(Cl)c1`
3

Tell me logP reported for `CN(C)NC(=O)CCC(=O)O`
-1.5

Tell me logP reported for `CN(C)S(=O)(=O)N(SC(F)(Cl)Cl)c1ccccc1`
3.7

Tell me logP reported for `O=C(NC(=O)c1ccccc1Cl)Nc1ccc(OC(F)(F)F)cc1`
4.91

Tell me logP reported for `CON=C(Cc1cccnc1)c1ccc(Cl)cc1Cl`
3.7

Tell me logP reported for `O=S(=O)(c1ccc(Cl)cc1)c1cc(Cl)c(Cl)cc1Cl`
4.61

Tell me logP reported for `CCCOCCN(C(=O)CCl)c1c(CC)cccc1CC`
4.08

* * *

Conditions: 25 °C
Entries annotated with measured solubility
Please give a number only; it is taken to be in µM.

Solved entries (count: 3):
* CCNc1nc(Cl)nc(N(CC)CC)n1 | 87.1
* CCOC(=O)C(Cl)Cc1cc(-n2nc(C)n(C(F)F)c2=O)c(F)cc1Cl (stereo not given) | 53.4
* CC1(C)[C@H](C(=O)O[C@H](C#N)c2cccc(Oc3ccccc3)c2)[C@@H]1/C=C\C(=O)OC(C(F)(F)F)C(F)(F)F | 0.0369

Next up:
Tell me solubility reported for `Oc1ccc(Cl)cc1Cc1cc(Cl)ccc1O`
111

* * *

Conditions: 20 °C
measureName: log10 of solubility (log10 of the value in µM)
In plain terms, each number is the log10 of measured solubility in µM.

- COc1cc(OC)n2nc(S(=O)(=O)Nc3c(Cl)ccc(C)c3Cl)nc2n1: 2.68
- CO/C=C(/C(=O)OC)c1ccccc1Oc1cc(Oc2ccccc2C#N)ncn1: 1.17
- CC1(C)[C@H](C=C(Cl)Cl)[C@H]1C(=O)OCc1c(F)c(F)cc(F)c1F: -0.81
- CCCC(=NOCC)C1=C(O)CC(C2CCCSC2)CC1=O (stereo not drawn): 2.09
- CC1(C)OC(c2ccco2)CN1C(=O)C(Cl)Cl (stereo not drawn): 2.85
- CCOP(=S)(OCC)Oc1ccc(=O)n(-c2ccccc2)n1: 2.47
- N#Cc1c(Cl)cccc1Cl: 2.02
- CCNc1nc(Cl)nc(NCC)n1: 1.66

Tell me log10 of solubility reported for `CC1=CC[C@@H]2C[C@@H](C[C@]3(CC[C@H](C)[C@@H](C)O3)O2)OC(=O)[C@@H]2C=C(C)[C@@H](O)[C@H]3OCC(=CC=C[C@H](C)C1)[C@]32O`
0.22

Tell me log10 of solubility reported for `COc1ccc(-c2ccccc2)cc1NNC(=O)OC(C)C`
1.10

Tell me log10 of solubility reported for `CNC(=O)Oc1cc(C)cc(C)c1`
3.42

Tell me log10 of solubility reported for `CCOC(=O)Cn1c(=O)sc2cccc(Cl)c21`
2.24
